List of inhibition values.
Test: inhibitors of TNFa-induced NFkB p65 translocation, primary screen, imaging, HUVEC, MLSMR starter and 10KST1 sets (AID 438);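 further: compound added about 3h40 before a 20 min TNFalpha stimulation; signal is the nuclear over cytoplasmic p65 intensity ratio per well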
Conditions: HUVEC TNFa-induced p65 nuclear translocation; at 2 µM, active compounds read high, 0% TNFa-plus-vehicle, 100% no-TNFa wells
Just the number in %, nothing appended.

Consider the worked cases shown below.
MOLECULE | inhibition (%)
O=C(Nc1ccc(S(=O)(=O)NC2CCCC2)cc1)c1cnccn1 | 1.5
O=C(Nc1cccc(C(=O)N2CCOCC2)c1)c1cccnc1 | -15.4
O=C1CCc2nc3sc4c(c3c(=O)n2N1)CCCC4 | -18.1
O=C(CCCCCn1c(=O)[nH]c2ccsc2c1=O)N1CCCCC1 | -1.8

Req: Give the value of inhibition reported for the following: COc1ccccc1CNC(=O)C1CCN(S(=O)(=O)N2CCCCC2)CC1
Resp: -1.8

Req: Using known records, supply inhibition for Cc1ccc(S(=O)(=O)NCCc2ccncc2)cc1
Resp: -1.9

Req: Name the recorded inhibition of the item C=CCn1c(SCc2ccc3nonc3c2)nnc1-c1cccs1 in your answer.
Resp: -14

Req: Output inhibition of CCOc1ccc(-n2c(C)nc3c(cnn3-c3ccc(Cl)cc3)c2=O)cc1
Resp: -9

Req: Give the reported inhibition for this molecule. O=c1[nH]c2c(s1)C(c1ccco1)C1C3CCC(C3)C1S2 (stereo unspecified)
Resp: 9.2

Req: Please indicate inhibition recorded for Cc1ccc(C2CC(c3cccc(Br)c3)Nc3nnnn32)cc1 (stereo unspecified)
Resp: -10

Req: Name the recorded inhibition of the item COc1cccc(C(=O)CSc2nnc(COc3cccc4cccnc34)o2)c1 in your answer.
Resp: -6.3
